Numbers sourced from the supplement of paper PMC6757056.

B1: library; a variant is named by its letters at N, in order (parent)
chain: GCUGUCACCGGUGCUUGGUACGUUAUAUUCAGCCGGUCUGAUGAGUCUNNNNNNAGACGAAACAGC

variants of: B1; assay: normalized RNA/DNA level without ligand (relative to sTRSVctl = 100) (log10 (% of sTRSVctl)); HEK293T overexpressing SLC46A1; higher = less ribozyme self-cleavage, higher mRNA level; details: without (6R,S)-folinic acid; ligand present: no
Recorded metric: normalized RNA/DNA level without ligand (log10)

Record sequence: GCUGUCACCGGUGCUUGGUACGUUAUAUUCAGCCGGUCUGAUGAGUCUAGGAUCAGACGAAACAGC [AGGAUC]
Observed measurement: 2.06
--
Record sequence: GCUGUCACCGGUGCUUGGUACGUUAUAUUCAGCCGGUCUGAUGAGUCUGUUCCGAGACGAAACAGC [GUUCCG]
Observed measurement: 2.03
--
Record sequence: GCUGUCACCGGUGCUUGGUACGUUAUAUUCAGCCGGUCUGAUGAGUCUAAACAGAGACGAAACAGC [AAACAG]
Observed measurement: 1.92
--
Record sequence: GCUGUCACCGGUGCUUGGUACGUUAUAUUCAGCCGGUCUGAUGAGUCUGGAGGAAGACGAAACAGC [GGAGGA]
Observed measurement: 1.98
--
Record sequence: GCUGUCACCGGUGCUUGGUACGUUAUAUUCAGCCGGUCUGAUGAGUCUCCGAUCAGACGAAACAGC [CCGAUC]
Observed measurement: 2.06
--
Record sequence: GCUGUCACCGGUGCUUGGUACGUUAUAUUCAGCCGGUCUGAUGAGUCUAGCGCUAGACGAAACAGC [AGCGCU]
Observed measurement: 2.03
--
Record sequence: GCUGUCACCGGUGCUUGGUACGUUAUAUUCAGCCGGUCUGAUGAGUCUCACAAUAGACGAAACAGC [CACAAU]
Observed measurement: 1.95
--
Record sequence: GCUGUCACCGGUGCUUGGUACGUUAUAUUCAGCCGGUCUGAUGAGUCUCUCGCCAGACGAAACAGC [CUCGCC]
Observed measurement: 2.1
--
Record sequence: GCUGUCACCGGUGCUUGGUACGUUAUAUUCAGCCGGUCUGAUGAGUCUUGACAGAGACGAAACAGC [UGACAG]
Observed measurement: 1.82
--
Record sequence: GCUGUCACCGGUGCUUGGUACGUUAUAUUCAGCCGGUCUGAUGAGUCUUCGGGGAGACGAAACAGC [UCGGGG]
Observed measurement: 1.86
--
Record sequence: GCUGUCACCGGUGCUUGGUACGUUAUAUUCAGCCGGUCUGAUGAGUCUGAGGGUAGACGAAACAGC [GAGGGU]
Observed measurement: 2
--
Record sequence: GCUGUCACCGGUGCUUGGUACGUUAUAUUCAGCCGGUCUGAUGAGUCUGCAUACAGACGAAACAGC [GCAUAC]
Observed measurement: 1.98
--
Record sequence: GCUGUCACCGGUGCUUGGUACGUUAUAUUCAGCCGGUCUGAUGAGUCUAAUCAUAGACGAAACAGC [AAUCAU]
Observed measurement: 1.96
--
Record sequence: GCUGUCACCGGUGCUUGGUACGUUAUAUUCAGCCGGUCUGAUGAGUCUACUGUCAGACGAAACAGC [ACUGUC]
Observed measurement: 2.08
--
Record sequence: GCUGUCACCGGUGCUUGGUACGUUAUAUUCAGCCGGUCUGAUGAGUCUCGGCUAAGACGAAACAGC [CGGCUA]
Observed measurement: 2.11
--
Record sequence: GCUGUCACCGGUGCUUGGUACGUUAUAUUCAGCCGGUCUGAUGAGUCUACUCCGAGACGAAACAGC [ACUCCG]
Observed measurement: 2
--
Record sequence: GCUGUCACCGGUGCUUGGUACGUUAUAUUCAGCCGGUCUGAUGAGUCUCGGUUGAGACGAAACAGC [CGGUUG]
Observed measurement: 2.03
--
Record sequence: GCUGUCACCGGUGCUUGGUACGUUAUAUUCAGCCGGUCUGAUGAGUCUCACGCCAGACGAAACAGC [CACGCC]
Observed measurement: 2.04
--
Record sequence: GCUGUCACCGGUGCUUGGUACGUUAUAUUCAGCCGGUCUGAUGAGUCUGCUCAUAGACGAAACAGC [GCUCAU]
Observed measurement: 2.02
--
Record sequence: GCUGUCACCGGUGCUUGGUACGUUAUAUUCAGCCGGUCUGAUGAGUCUACGUUCAGACGAAACAGC [ACGUUC]
Observed measurement: 2.07
--
Record sequence: GCUGUCACCGGUGCUUGGUACGUUAUAUUCAGCCGGUCUGAUGAGUCUUAUCCGAGACGAAACAGC [UAUCCG]
Observed measurement: 1.84
--
Record sequence: GCUGUCACCGGUGCUUGGUACGUUAUAUUCAGCCGGUCUGAUGAGUCUGUCGAUAGACGAAACAGC [GUCGAU]
Observed measurement: 1.99
